Origin of values: patent US20220387557A1

- measurement_target: T1, Fc tagged mouse TNFR1 (Sino Biological) (mouse, UniProt P25118 22-212, limits assumed)
- T1 construct: Bought reagent; also called mTNFR1; mTNFR1-Fc; not shown: Fc tag of the bought protein
- T1 sequence (looked up): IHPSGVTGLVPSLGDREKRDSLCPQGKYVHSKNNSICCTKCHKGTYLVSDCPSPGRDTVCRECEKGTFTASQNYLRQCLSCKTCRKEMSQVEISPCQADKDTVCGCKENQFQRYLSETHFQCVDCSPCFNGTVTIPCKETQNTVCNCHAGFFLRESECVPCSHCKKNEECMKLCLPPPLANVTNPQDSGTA
- experimental_protocol: SPR, Biacore T200 single cycle kinetics, receptor-Fc captured on Protein A chip, TNF 1.67-15 nM
- Method: Single cycle kinetic analysis was performed using a Biacore T200 (serial no. 1909913) running Biacore T200 Evaluation Software V2.0.1 (Uppsala, Sweden). All experiments were run at 25° C. with HBS-P+ running buffer (pH 7.4) (GE Healthcare, Little Chalfont, UK). […]
result_type: Kd (nM)
Give the value, in units of nM, as a plain number.

// query May I ask what Kd has been recorded for TNF mutein C4 (ligand, Human TNF mutein, SHSVEG at positions 84-89; not shown: C-terminal FLAG tag and His6 tag from vector pANT65) VRSSSRTPSDKPVAHVVANPQAEGQLQWLNRRANALLANGVELRDNQLVVPSEGLYLIYSQVLFKGQGCPSTHVLLTHTISRISHSVEGKVNLLSAIKSPCQRETPEGAEAKPWYEPIYLGGVFQLEKGDRLSAEINRPDYLDFAESGQVYFGIIAL ?
// result 0.0323

// query Quick one: Kd of TNF mutein F7 (ligand, Human TNF mutein, SETVVG at positions 84-89; not shown: C-terminal FLAG tag and His6 tag from vector pANT65) VHSSSRTPSDKPVAHVVANPQAEGQLQWLNRRANALLANGVELRDNQLVVPSEGLYLIYSQVLFKGQGCPSTHVLLTHTISRISETVVGKVNLLSAIKSPCQRETPEGAEAKPWYEPIYLGGVFQLEKGDRLSVEINRPDYLDFAESGQVYFGIIAL ?
// result 0.0827

// query # lookup: Kd of TNF mutein B2 (ligand, Human TNF mutein, TASYSG at positions 84-89; not shown: C-terminal FLAG tag and His6 tag from vector pANT65) VRSSSRTPSDKPVAHVVANPQAEGQLQWLNRRANALLANGVELRDNQLVVPSEGLYLIYSQVLFKGQGCPSTHVLLTHTISRITASYSGKVNLLSAIKSPCQRETPEGAEAKPWYEPIYLGGVFQLEKGDRLSAEINRPDYLDFAESGQVYFGIIAL
// result 0.0256
